Source of measurements: patent US8535650B2

ASSAY PROCEDURE: in vivo
TEST CONTEXT: Sprague-Dawley, rat, 2.4 mg/kg
OBSERVED PROPERTY: Cmax (ng/mL)
Report only the number, with the unit ng/mL understood.

Q: I would be grateful if you could share the reported Cmax for CCNC(=O)[C@@H]1CCCN1C(=O)[C@H](CCCNC(=N)N)NC(=O)[C@H](CC(C)C)NC(=O)[C@@H](CC(C)C)NC(=O)[C@H](Cc1ccc(O)cc1)NC(=O)[C@H](CO)NC(=O)[C@H](Cc1c[nH]c2ccccc12)NC(=O)[C@H](Cc1c[nH]cn1)NC(=O)[C@@H]1CCC(=O)N1 [Leuprolide solution] .
A: 6.3

###

ASSAY PROCEDURE: in vivo
TEST CONTEXT: Sprague-Dawley, rat, sc, 0.4 mg/kg
OBSERVED PROPERTY: bioavailability (%)
# unit: % | format: bare number

Q: I have this compound here, CCNC(=O)[C@@H]1CCCN1C(=O)[C@H](CCCNC(=N)N)NC(=O)[C@H](CC(C)C)NC(=O)[C@@H](CC(C)C)NC(=O)[C@H](Cc1ccc(O)cc1)NC(=O)[C@H](CO)NC(=O)[C@H](Cc1c[nH]c2ccccc12)NC(=O)[C@H](Cc1c[nH]cn1)NC(=O)[C@@H]1CCC(=O)N1 [Leuprolide solution] , and I need its recorded bioavailability.
A: 100
